Task for the reader: assign each of the following compounds its reported inhibition at 2 µM.
target: CYP2D6 (Homo sapiens, UniProt P10635); test: Inhibition of cytochrome P450 2D6 at 2 uM
Sequence (P10635 whole entry): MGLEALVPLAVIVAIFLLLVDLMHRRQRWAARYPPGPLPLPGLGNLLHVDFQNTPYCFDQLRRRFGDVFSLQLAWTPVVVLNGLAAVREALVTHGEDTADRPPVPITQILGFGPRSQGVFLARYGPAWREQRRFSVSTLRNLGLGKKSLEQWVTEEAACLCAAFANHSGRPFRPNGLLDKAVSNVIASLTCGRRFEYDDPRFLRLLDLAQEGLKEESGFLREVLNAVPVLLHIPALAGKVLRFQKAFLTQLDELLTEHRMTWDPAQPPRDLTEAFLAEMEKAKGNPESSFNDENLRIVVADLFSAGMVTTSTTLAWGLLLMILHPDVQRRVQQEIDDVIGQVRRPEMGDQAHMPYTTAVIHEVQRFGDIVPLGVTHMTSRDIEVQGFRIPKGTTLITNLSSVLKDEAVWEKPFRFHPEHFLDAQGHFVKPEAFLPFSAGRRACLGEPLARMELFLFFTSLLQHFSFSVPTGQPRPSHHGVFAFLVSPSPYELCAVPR

COc1ccc(OCC(O)CN2CCN(C(C(=O)NCc3ccccc3)c3ccc(F)cc3)CC2)cc1 (centres undefined) tested on CYP2D6 (Homo sapiens, UniProt P10635) gave inhibition at 2 µM: 0%

Value sought: inhibition at 2 µM, system CYP2D6 (Homo sapiens, UniProt P10635), item COc1ccc(C(=O)NCC(c2ccccc2)N2CCN(CC(O)COc3ccc(Cl)cc3)CC2)cc1 (centres undefined) . Result: 47%

Entry COc1ccc(CNC(=O)C(c2ccc(C(F)(F)F)cc2)N2CCN(CC(O)COc3c(C)cccc3C)CC2)cc1 (centres undefined) ; assay system CYP2D6 (Homo sapiens, UniProt P10635); inhibition at 2 µM recorded at 8%

Known value: CYP2D6 (Homo sapiens, UniProt P10635) inhibition at 2 µM of the compound OC(COc1ccccc1)CN1CCN(C(c2ccccc2)c2ccc(C(F)(F)F)cc2)CC1 (centres undefined) equals 87%

Record O=S(=O)(NCC(c1ccc(C(F)(F)F)cc1)N1CCN(CC(O)COc2ccc(F)cc2)CC1)c1ccccc1Cl (centres undefined) has CYP2D6 (Homo sapiens, UniProt P10635) inhibition at 2 µM equal to 56%

Entry COc1ccc(CNC(=O)C(c2ccc(F)cc2)N2CCN(CC(O)COc3ccc(OC)cc3)CC2)cc1 (centres undefined) under CYP2D6 (Homo sapiens, UniProt P10635) had inhibition at 2 µM of 10%

Measured inhibition at 2 µM (CYP2D6 (Homo sapiens, UniProt P10635)), entry COc1ccc(OCC(O)CN2CCN(C(C(=O)NCc3ccccc3)c3ccc(C(F)(F)F)cc3)CC2)cc1 (centres undefined) : 13%

inhibition at 2 µM value, target or system CYP2D6 (Homo sapiens, UniProt P10635), for COc1ccc(OCC(O)CN2CCN(C(C(=O)NCc3ccccc3)c3ccc(C)cc3)CC2)cc1 (centres undefined) : 10%

COc1ccc(CNC(=O)C(c2ccc(OC)cc2)N2CCN(CC(O)COc3c(C)cccc3C)CC2)cc1 (centres undefined) tested on CYP2D6 (Homo sapiens, UniProt P10635) gave inhibition at 2 µM: 9%

inhibition at 2 µM for CYP2D6 (Homo sapiens, UniProt P10635) with input COc1ccc(CNC(=O)C(c2ccc(C(F)(F)F)cc2)N2CCN(CC(O)COc3ccc(OC)cc3)CC2)cc1 (centres undefined) equals 0%

# lookup: COc1ccc(OCC(O)CN2CCN(C(CNC(=O)c3ccc(F)cc3)c3ccccc3)CC2)cc1 (centres undefined) on CYP2D6 (Homo sapiens, UniProt P10635), inhibition at 2 µM = 33%

Summary: COc1ccc(OCC(O)CN2CCN(C(CNC(=O)c3ccc(OC)cc3)c3ccccc3)CC2)cc1 (centres undefined) , CYP2D6 (Homo sapiens, UniProt P10635), inhibition at 2 µM = 12%

The value of inhibition at 2 µM recorded for Cc1cccc(S(=O)(=O)NCC(c2ccc(C(F)(F)F)cc2)N2CCN(CC(O)COc3ccc(Br)cc3)CC2)c1 (centres undefined) when tested on CYP2D6 (Homo sapiens, UniProt P10635) reads 27%

Entry COc1ccc(OCC(O)CN2CCN(C(CNC(=O)c3ccccc3OC)c3ccccc3)CC2)cc1 (centres undefined) , tested on CYP2D6 (Homo sapiens, UniProt P10635), has a reported inhibition at 2 µM of 9%

Summary: COc1ccc(CNC(=O)C(c2ccc(C)cc2)N2CCN(CC(O)COc3c(C)cccc3C)CC2)cc1 (centres undefined) , CYP2D6 (Homo sapiens, UniProt P10635), inhibition at 2 µM = 14%

Reading of inhibition at 2 µM for Cc1ccc(C(C(=O)NCc2ccccc2)N2CCN(CC(O)COc3c(C)cccc3C)CC2)cc1 (centres undefined) with CYP2D6 (Homo sapiens, UniProt P10635): 26%

Entry COc1ccc(OC)c(S(=O)(=O)NCC(c2ccccc2)N2CCN(CC(O)COc3ccc(Br)cc3)CC2)c1 (centres undefined) ; assay system CYP2D6 (Homo sapiens, UniProt P10635); inhibition at 2 µM recorded at 25%

GET /values?item= O=C(NCC(c1ccccc1)N1CCN(CC(O)COc2ccccc2)CC1)c1ccc(F)cc1 (centres undefined) &system= CYP2D6 (Homo sapiens, UniProt P10635) returns inhibition at 2 µM: 9%

Lab entry: CYP2D6 (Homo sapiens, UniProt P10635) assay, compound Cc1cccc(C)c1OCC(O)CN1CCN(C(C(=O)NCc2ccccc2)c2ccc(F)cc2)CC1 (centres undefined) , inhibition at 2 µM = 20%

Source: ChEMBL document CHEMBL1147532
